# PROTOCOL DETAILS: NCI Yeast Anticancer Drug Screen. Data for the bub3 strain (AID 167)
# MEASUREMENT CONDITIONS: S. cerevisiae bub3 mutant strain, at 50.0 µM, active compounds read high
About 79,000 compounds went through this panel and 15% of them were active in at least one assay; those are over-represented in the sample as a whole. Active and inactive are the calls of the source. Rule as the data show it: active = growth inhibition above about 70%; inactive = the rest.
QUANTITY MEASURED: growth inhibition

>>> print(df.to_string())
                                   compound  quantity_measured        test_result
0  COC(=O)C1=NOC(Cc2ccccc2)C1 (configuration not stated)  growth inhibition   6.45% (inactive)
1  Cn1nc(-c2ccc(Cl)c(Cl)c2)[n+]([O-])c2c(=O)n(C)c(=O)nc1-2  growth inhibition     85.3% (active)
2      CCOC(=O)Cn1c(=O)n(C)c(=O)c2[nH]cnc21  growth inhibition   22.5% (inactive)
3                      COC(=O)c1nsc(OC)c1Cl  growth inhibition   23.6% (inactive)
4     COc1ccc(C(=O)c2ccc(C(=O)O)cc2)c(OC)c1  growth inhibition   5.95% (inactive)
5              N#Cc1nc(Nc2cccc3ccccc23)sc1N  growth inhibition   15.7% (inactive)
6  CC(C)N1COC(c2ccccc2)C1 (configuration not stated)  growth inhibition  -24.9% (inactive)

----------
# PROTOCOL DETAILS: NCI Yeast Anticancer Drug Screen. Data for the mlh1 rad18 strain (AID 175)
# MEASUREMENT CONDITIONS: S. cerevisiae mlh1 rad18 strain growth inhibition; at 50.0 µM; active compounds read high
# Protocol: Growth inhibition of yeast strains with defined genetic alterations is measured as a screen for potential anti-cancer activity. Selected strains with alterations in DNA damage repair or cell cycle control were exposed to compounds and growth inhibition was measured relative to vehicle treated controls. The strain used in this assay is mlh1 rad18
About 79,000 compounds went through this panel and 15% of them were active in at least one assay; those are over-represented in the sample as a whole.
QUANTITY MEASURED: growth inhibition (%)

                                    molecule  test_result
 0                       Cc1cc2ncn(CO)c2cc1C         0.75
 1  COc1ccc(C(=O)N/N=C/c2c(C)n(C)n(-c3ccccc3)c2=O)cc1        -48.5
 2               O=[S@@]1Nc2cc(Cl)c(Cl)cc2S1         14.1
 3             Cc1ccc2cccc([N+](=O)[O-])c2n1         14.3
 4  COc1nc(NC2OC(CO)C(O)C(O)C2O)c(C(C)=O)c(=O)n1C (centres undefined)         12.5
 5                              CCNCc1ccccc1        -18.8
 6  COC(=O)CC(=O)/C(=C/C(C/C=C(\C(=O)CC(=O)OC)C(=O)OC)OC)C(=O)OC (centres undefined)         32.3
 7                            Cc1cccc(Cl)c1N        -3.15
 8              COc1ccc(OC)c2c(C(C)=O)cccc12        -21.7
 9  CCOC(=O)C[C@@]1(C)C(=O)O[C@H](c2ccccc2)N1C(=O)c1ccccc1         15.1
10  CCN(CC)CCO/N=C1\CC(c2ccc(OC)c(OC)c2)Oc2ccccc21 (centres undefined)          9.8
11  CC1(C)[C@H]2CC[C@@]1(C)C(=O)[C@H]2[N+](=O)[O-]         8.75
12  O=P(c1ccccc1)(c1ccccc1)C(O)c1ccncc1 (centres undefined)        -10.9
13  C/C(=N\Nc1ccccc1)c1sc(-c2nc(C)c(/C(C)=N/Nc3ccccc3)s2)nc1C         25.2
14            N=c1c2c(ncn1N)CCN(Cc1ccccc1)C2        -32.8
15  CC(C)(C)OC(=O)C1C(=O)CC(c2ccccc2)C1c1ccccc1 (centres undefined)         -1.9
16  CC1(CO)CCCC1NCCNC1CCCC1(C)CO (centres undefined)         15.5
17       COc1ccc(Cl)cc1NC(=O)O/N=C(\Cl)C(C)C        -74.3
18      NC(=O)/C(=C(/O)C(=O)O)c1ccnc2ccccc12        -2.15
19  CC(C)C(=O)OC1CCCCC1Cc1ccccn1 (centres undefined)         -6.8
20  CCOP(=O)(OCC)/C(C#N)=C/c1cnc(-c2ccccc2)[nH]1          -34
21  CC(=O)OCC1OC(n2c(-c3ccc(Cl)cc3)cc(-c3ccccc3)c(C#N)c2=S)C(OC(C)=O)C(OC(C)=O)C1OC(C)=O (centres undefined)         14.2
22             CCc1cccc(CC)c1N(C(C)=O)C(C)=O          3.2
23        CCCC(=O)c1ccc2c(c1)CCc1cc(O)ccc1-2          1.6

----------
Overview of recorded growth inhibition for various compounds
# PROTOCOL DETAILS: NCI Yeast Anticancer Drug Screen. Data for the mec2-1 strain (AID 157)
# MEASUREMENT CONDITIONS: S. cerevisiae mec2-1 strain, at 50.0 µM, active compounds read high
# Description: Growth inhibition of yeast strains with defined genetic alterations is measured as a screen for potential anti-cancer activity. Selected strains with alterations in DNA damage repair or cell cycle control were exposed to compounds and growth inhibition was measured relative to vehicle treated controls. The strain used in this assay is mec2-1
This is part of a sample that, as a whole, favours compounds with a hit. Of some 79,000 tested, about 15% had one in any assay.
QUANTITY MEASURED: growth inhibition (%)

>>> df
                                    compound  test_result
 0  CO/N=C1\CC(NC(=O)C(F)(F)F)c2ccsc21 (configuration not stated)          6.9
 1  CC(C)(C)[Si](C)(C)OCC1OC(n2cnc3c(N)ncnc32)C(O)C1O (configuration not stated)        -15.2
 2  OCC(O)C(O)C(O)C(Sc1ccccc1)Sc1ccccc1 (configuration not stated)         11.8
 3  Cc1cc(C)c(C#N)c(SC(C(=O)NC(C)(C)C)c2ccccc2)n1 (configuration not stated)        -16.8
 4  CCOC(=O)C(C=Nc1ccc(S(N)(=O)=O)cc1)C(=O)OCC         4.85
 5                    C=CCOC(=O)CCC(=O)OCC=C          6.2
 6                 NC(=O)Cc1nc(O)cc(=O)[nH]1         -9.1
 7              Cc1cc(Cl)ccc1OC(=O)NC1CCCCC1         24.4
 8          NNC(=O)c1c(-c2cccnc2)cnc2ccccc12        -20.6
 9  Cc1ccc(C)c(NC(=O)Oc2ccc(Cl)cc2Cc2ccccc2)c1         -3.5
10      Cc1cc2c3ccccc3n(C)c2c2c1C(=O)C=CC2=O         20.4
11             NC(=O)Nc1cccc(C(=O)O)c1C(=O)O        -13.2

----------
# PROTOCOL DETAILS: NCI Yeast Anticancer Drug Screen. Data for the mlh1 rad18 strain (AID 175)
# MEASUREMENT CONDITIONS: S. cerevisiae mlh1 rad18 strain growth inhibition; at 50.0 µM; active compounds read high
The panel holds about 79,000 compounds, 15% with a hit somewhere; the sample as a whole holds those more often.
Overview of recorded growth inhibition for various compounds
QUANTITY MEASURED: growth inhibition (%)

                                    compound  unit_tag  test_result
 0                  Cc1ccc(NC(=S)N2CCCC2)cc1         %         -0.7
 1     c1csc(-c2cc(-c3ccsc3)c(-c3ccsc3)s2)c1         %         -8.6
 2  C=CCOc1cc2c(cc1C(C)c1ccc(OCC)c(C)c1)OCO2 (stereo not drawn)         %         -1.6
 3  CCOC(=O)Nc1ccc([N+](=O)[O-])c2c1C(=O)c1ccccc1-2         %        -19.5
 4          Cc1cc(=O)n2c(n1)sc1ccc3ccccc3c12         %         33.9
 5  COC(=O)C(C(=O)C(=O)Nc1c(Cl)cc([N+](=O)[O-])cc1Cl)c1nc2cc(C)c(C)cc2[nH]c1=O (stereo not drawn)         %        -9.75
 6  CC(C)NC(=O)OCc1c(COC(=O)NC(C)C)c(S(C)(=O)=O)n2c1CCC2         %          6.8
 7                     CCCOC(=O)c1cc(O)ccc1O         %         -1.7
 8  CC1=C(CO)C(=O)O[C@@H]([C@@H](C)[C@H]2CC[C@H]3[C@@H]4C[C@H]5O[C@]56[C@@H](O)C=CC(=O)[C@]6(C)[C@H]4CC[C@]23C)C1         %           85
 9      C/C(=N/NC(N)=O)c1ccc([N+](=O)[O-])o1         %         47.2
10                           O=C1CCC(=O)N1Cl         %        -13.8
11  C/C(CC(=O)Nc1ccc(Cl)c(Cl)c1)=N/NC(=O)C[n+]1ccccc1         %         29.2
12       COc1ccc(CCNC(=S)NCCc2ccc(OC)cc2)cc1         %          -21
13  c1ccc(C2(c3ccccc3)CC([P+](c3ccccc3)(c3ccccc3)c3ccccc3)N=N2)cc1 (stereo not drawn)         %         99.5
14  O=C(Nc1ccccc1)N1CC2(CN1)CNN(C(=O)Nc1ccccc1)C2         %        -9.75
15  CCNCc1cc(Nc2nc(NC3CCC(N(C)C)CC3)c3ccccc3n2)ccc1OC (stereo not drawn)         %            9
16  CSc1nc(NC2OC(COC(C)=O)C(OC(C)=O)C(OC(C)=O)C2OC(C)=O)c2c(n1)OCC2=O (stereo not drawn)         %         18.1
17  O=C(Nc1ccccc1)OCC(CN1CCCCC1)OC(=O)Nc1ccccc1 (stereo not drawn)         %        -37.1
18     COc1ccccc1OCC(O)CO (stereo not drawn)         %         10.5
19             Nc1cccc(N2N=C(C(=O)O)CC2=O)c1         %        -15.6
20                      CCCCC/C(C)=N\NC(N)=S         %         -2.5
21  O=C1CC2C3CC4(OCCO4)C4C3CC2C14 (stereo not drawn)         %          5.8
22  CN1C(=O)C(O)(c2c3c(c(C4(O)C(=O)N(C)c5ccccc54)c4c2OCO4)OCO3)c2ccccc21 (stereo not drawn)         %         8.95
